# Target Or Test System: SARS-CoV-2 S1 (antigen of the Carterra SPR kinetics) (SARS-CoV-2, UniProt P0DTC2 16-685)
# Run Description: Carterra SPR
Property Label: Kd (nM)
Answer in nM, number only, no unit symbol.

[
  {
    "Binder": "1-32 (antibody, V domains shown, also called variant 1-32) VH: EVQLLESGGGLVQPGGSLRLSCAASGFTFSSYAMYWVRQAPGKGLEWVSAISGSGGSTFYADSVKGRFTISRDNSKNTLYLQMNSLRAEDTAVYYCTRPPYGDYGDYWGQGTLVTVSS VL: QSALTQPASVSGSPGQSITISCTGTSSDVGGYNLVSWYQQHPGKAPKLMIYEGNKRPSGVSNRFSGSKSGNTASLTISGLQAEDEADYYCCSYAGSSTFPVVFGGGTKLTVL",
    "Result Unit": "nM",
    "Measured Value": 57.8
  },
  {
    "Binder": "1-27 (antibody, V domains shown, also called variant 1-27) VH: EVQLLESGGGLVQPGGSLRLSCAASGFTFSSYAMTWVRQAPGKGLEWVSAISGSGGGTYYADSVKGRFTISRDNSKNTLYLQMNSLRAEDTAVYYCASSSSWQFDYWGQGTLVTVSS VL: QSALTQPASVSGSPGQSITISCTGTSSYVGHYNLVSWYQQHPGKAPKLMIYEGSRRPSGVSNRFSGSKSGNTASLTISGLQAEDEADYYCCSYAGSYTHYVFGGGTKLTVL",
    "Result Unit": "nM",
    "Measured Value": 12.5
  }
]

# context switch: different binder, same Kd
[Q] Using the record for 1-12 (antibody, V domains shown, also called variant 1-12) VH: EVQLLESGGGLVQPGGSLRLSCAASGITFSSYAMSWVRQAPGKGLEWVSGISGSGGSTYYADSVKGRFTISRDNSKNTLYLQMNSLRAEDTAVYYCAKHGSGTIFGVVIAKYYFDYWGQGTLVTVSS VL: QSALTQPASVSGSPGQSITISCTGTSSDVGHYNLVSWYQQHPGKAPKLMIYEGTKRPSGVSNRFSGSKSGNTASLTISGLQAEDEADYYCCSYAGSSSFVVFGGGTKLTVL , report its Kd.
[A] 372
